The measured values listed here are drawn from paper PMC8804135.

Biological target: GAL2R (Homo sapiens, UniProt O43603)
Sequence (O43603 whole entry, species assumed): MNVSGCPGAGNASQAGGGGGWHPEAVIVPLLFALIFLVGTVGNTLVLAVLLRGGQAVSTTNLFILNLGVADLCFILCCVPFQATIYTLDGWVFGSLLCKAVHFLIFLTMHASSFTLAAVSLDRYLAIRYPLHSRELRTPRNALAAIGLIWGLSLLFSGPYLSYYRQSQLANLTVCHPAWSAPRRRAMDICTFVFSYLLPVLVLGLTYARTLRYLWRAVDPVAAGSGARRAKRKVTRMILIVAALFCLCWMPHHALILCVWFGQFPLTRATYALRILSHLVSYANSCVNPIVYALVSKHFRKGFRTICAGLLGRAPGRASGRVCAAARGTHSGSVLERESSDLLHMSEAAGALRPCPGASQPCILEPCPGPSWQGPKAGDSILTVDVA
Assay: Fluo-4 Direct calcium assay (Ca efflux) in HEK293 cells overexpressing GAL2R
Assay type: cell-based
Conditions: Table 3; HEK293 cells stably overexpressing GAL2R; Fluo-4, from 10 µM; (average) ratio, (n) in cell = number of assays; NA = ratio above 1000
Square brackets hold non-standard residues; d marks the D form. Ends that are not written are not given here. pGlu = O=C1CC[C@@H](C(=O)O)N1
Reported EC50 ratios to Gal-(1-15), GAL2R Ca-efflux is given for each of the following substances.
attribute.measured: EC50 ratios to Gal-(1-15), GAL2R Ca-efflux

GWNLNAAGYLLGPHATGNCR (also: sidechain bridge or staple (positions not given here)) [Variant M74, methyllanthionine-containing galanin variant produced in L. lactis]; 4.7 (1)
[pGlu]WNLNAAGYLLGPTAVC (also: sidechain bridge or staple (positions not given here)) [Variant M87, pyroglutamate- and methyllanthionine-containing galanin variant]; 1.9 (2)
GWNLNAAGYLLGTHACG (also: sidechain bridge or staple (positions not given here)) [Variant M84, methyllanthionine-containing galanin variant produced in L. lactis]; 6.3 (1)
GWNLNAAGYLLGATAVC (also: sidechain bridge or staple (positions not given here)) [Variant M90, methyllanthionine-containing galanin variant produced in L. lactis]; 4.6 (1)
